# System: B16
# Protocol Details: Cytotoxicity against mouse B16 cells after 48 hrs by MTT assay
# Assay type: functional, cell-based
# Test Conditions: B16, 48 h
Could you please report measured IC50 for the items listed next?

Query string: # return recorded IC50 for entry C[C@H](CO)c1cc2c(c(O)c1O[C@@H]1O[C@H](CO)[C@@H](O)[C@H](O)[C@H]1O)[C@@]1(C)CC[C@H](O)C(C)(C)[C@@H]1CC2
Result string: > 10 µM

Query string: # return recorded IC50 for entry C[C@H](CO)c1cc2c(c(O)c1O[C@@H]1O[C@H](CO)[C@@H](O)[C@H](O)[C@H]1O)[C@@]1(C)CC[C@H](O[C@@H]3O[C@H](CO)[C@@H](O)[C@H](O)[C@H]3O)C(C)(C)[C@@H]1CC2
Result string: > 10 µM

Query string: # return recorded IC50 for entry C[C@H](CO)c1cc2c(c(O)c1O[C@@H]1O[C@H](CO)[C@@H](O)[C@H](O)[C@H]1O)[C@@]1(C)CCC[C@](C)(CO[C@@H]3O[C@H](CO)[C@@H](O)[C@H](O)[C@H]3O)[C@@H]1CC2
Result string: > 10 µM

Query string: # return recorded IC50 for entry CC1=C(C)C2=CC(=O)c3c(O)c4c(c(O)c3[C@@]2(C)CC1)OC(C)C4 (some centres undefined)
Result string: 6.4 µM
